Sourced from patent US20260015350A1

# ASSAYED_SYSTEM: KRas^G12D (Homo sapiens, UniProt P01116, G12D)
# Construct: Biotinylated KRas (corresponding to amino acids 1-169, produced at Accelegan Inc.); biotin (biotinylated); purchased Accelegan Inc
# Sequence (P01116 1-169 isoform P01116-2 G12D): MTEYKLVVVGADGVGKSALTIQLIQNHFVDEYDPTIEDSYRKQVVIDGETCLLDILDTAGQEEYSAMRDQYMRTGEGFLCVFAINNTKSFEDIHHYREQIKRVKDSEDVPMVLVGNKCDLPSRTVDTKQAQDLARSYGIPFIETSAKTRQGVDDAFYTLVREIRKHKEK
# METHOD_DESCRIPTION: KRas binding assay (TR-FRET tracer displacement), KRas G12D
Answer each item with its documented log10(IC50).
// stored as log10 of IC50 expressed in nM

Looking up O=C1NCC2(CCCN(c3nc(OC[C@@]45CCCN4C[C@H](F)C5)nc4c(F)c(-c5c6ccccc6cc6[nH]ncc56)ncc34)C2)N1 (stereo partly drawn) [Example 760] , I found its log10(IC50) recorded as 1.88

Looking up CCc1c(F)ccc2cc(O)cc(-c3ncc4c(N5CCC6(CC5)CC[S+]6[O-])nc(OC[C@@]56CCCN5C[C@H](F)C6)nc4c3F)c12 (stereo partly drawn) [Example 603] , I found its log10(IC50) recorded as 3.21

Looking up CCc1c(F)ccc2cc(O)cc(-c3ncc4c(N5CCC[C@@](C)(O)C5)nc(OC[C@@]56CCCN5[C@H](COC(=O)NC)CC6)nc4c3F)c12 [Example 706] , I found its log10(IC50) recorded as 0.48

Looking up CCc1c(F)ccc2cc(O)cc(-c3ncc4c(N5CCC[C@@](C)(O)C5)nc(OC[C@]56CCCN5[C@@H](COC)CC6)nc4c3F)c12 [Example 877] , I found its log10(IC50) recorded as 0.48

Looking up CCc1c(F)ccc2cc(O)cc(-c3ncc4c(NC5CCONC5)nc(OC[C@@]56CCCN5C[C@H](F)C6)nc4c3F)c12 (stereo partly drawn) [Example 542] , I found its log10(IC50) recorded as 1.78

Looking up CCc1c(F)ccc2cc(O)cc(-c3ncc4c(NCc5cc(C(=O)N(C)C)nn5C[C@H]5C[C@@H](O)C5)nc(OC[C@@]56CCCN5C[C@H](F)C6)nc4c3F)c12 [Example 687] , I found its log10(IC50) recorded as 2.61

Looking up C#Cc1c(F)ccc2cc(O)cc(-c3ncc4c(N5CCCC6(CC(O)C6)C5)nc(OC[C@]56CCCN5[C@H](COC(=O)N(C)C)CC6)nc4c3F)c12 (stereo partly drawn) [Example 835] , I found its log10(IC50) recorded as 0.48

Looking up CCc1c(F)ccc2cc(O)cc(-c3ncc4c(N5C[C@@H]6C[C@]6(c6nc(C)no6)C5)nc(OC[C@@]56CCCN5C[C@H](F)C6)nc4c3F)c12 [Example 607] , I found its log10(IC50) recorded as 2.18

Looking up CCc1c(F)ccc2cc(O)cc(-c3ncc4c(N5C[C@H]6CC[C@@H](C5)[C@H]6O)nc(OC[C@@]56CCCN5C[C@H](F)C6)nc4c3F)c12 [Example 848] , I found its log10(IC50) recorded as 1.59

Looking up CCc1c(F)ccc2cc(O)cc(-c3ncc4c(N5CCC(n6cnnc6)C5)nc(OC[C@@]56CCCN5C[C@H](F)C6)nc4c3F)c12 (stereo partly drawn) [Example 564] , I found its log10(IC50) recorded as 2.81

###

Answer each item with its documented IC50.
# Tested on: KRas-mediated phosphorylation of ERK in MKN1 cells
# METHOD_DESCRIPTION: Inhibition of KRas-mediated phosphorylation of ERK (Cisbio HTRF pERK), MKN1 cells
# Type: cell-based
# RECORDED_CONDITIONS: Homo sapiens, MKN-1
Dear colleague, please return just the value in nM, with no unit written.

Looking up CN(C)CC1(COc2nc(N3CCCC4(CCO4)C3)c3cnc(-c4cc(O)cc5ccc(F)c(Cl)c45)c(F)c3n2)CC1 (stereo not drawn) [Example 854] , I found its IC50 recorded as 6

Looking up Oc1cc(-c2ncc3c(N4C[C@@H]5C[C@H](C4)[C@H](O)C5)nc(OC[C@@]45CCCN4C[C@H](F)C5)nc3c2F)c2cc(C(F)(F)F)ccc2c1 [Example 817] , I found its IC50 recorded as 50

Looking up CCc1c(F)ccc2cc(O)cc(-c3ncc4c(N5CCCC6(CCNS(=O)(=O)N6)C5)nc(OC[C@@]56CCCN5C[C@H](F)C6)nc4c3F)c12 (stereo partly drawn) [Example 656] , I found its IC50 recorded as 943
